Origin of measurements: paper PMC9458453

- Experimental system: topoisomerase I (topoI) (Dickeya dadantii, UniProt E0SBX6)
- Sequence (E0SBX6 entry or part of it): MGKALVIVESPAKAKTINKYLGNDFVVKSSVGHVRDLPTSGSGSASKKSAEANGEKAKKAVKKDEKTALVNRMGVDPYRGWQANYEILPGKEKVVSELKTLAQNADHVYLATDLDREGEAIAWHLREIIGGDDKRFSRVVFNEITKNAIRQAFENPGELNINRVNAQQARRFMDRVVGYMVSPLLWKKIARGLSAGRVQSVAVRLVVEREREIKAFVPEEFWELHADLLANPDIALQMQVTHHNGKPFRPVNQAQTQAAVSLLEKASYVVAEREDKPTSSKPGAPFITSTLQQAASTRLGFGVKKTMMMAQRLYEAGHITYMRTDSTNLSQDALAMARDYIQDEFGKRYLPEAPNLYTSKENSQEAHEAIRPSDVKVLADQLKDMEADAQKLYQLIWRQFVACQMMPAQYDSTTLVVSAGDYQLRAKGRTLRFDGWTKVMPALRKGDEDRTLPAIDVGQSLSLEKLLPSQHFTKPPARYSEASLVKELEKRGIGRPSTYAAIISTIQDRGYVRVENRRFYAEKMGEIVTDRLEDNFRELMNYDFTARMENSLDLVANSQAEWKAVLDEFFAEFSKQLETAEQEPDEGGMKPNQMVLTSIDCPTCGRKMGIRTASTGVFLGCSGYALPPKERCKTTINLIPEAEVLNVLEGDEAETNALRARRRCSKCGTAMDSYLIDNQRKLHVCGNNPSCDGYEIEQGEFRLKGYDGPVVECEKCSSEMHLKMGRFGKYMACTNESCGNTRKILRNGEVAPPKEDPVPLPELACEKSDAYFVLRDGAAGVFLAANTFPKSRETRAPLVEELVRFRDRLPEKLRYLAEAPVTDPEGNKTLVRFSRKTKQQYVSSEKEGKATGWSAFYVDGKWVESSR
Observable: pIC50
pIC50 here is simply -log10 of the concentration when that concentration is written in mol/L.

Ask | Notebook: pull reported pIC50 for topoisomerase I (topoI) (Dickeya dadantii, UniProt E0SBX6), entry `CNCCc1cc2c(c3c1ccc1cc4c(cc13)OCO4)OCO2`
Reply | 5.40
